Assayed Target: T1, Human CD47-C33G (human, UniProt Q08722 19-135)
T1 construct: also called CD47 mutein with C33G mutation
T1 sequence (Q08722 19-135 C33G limits assumed): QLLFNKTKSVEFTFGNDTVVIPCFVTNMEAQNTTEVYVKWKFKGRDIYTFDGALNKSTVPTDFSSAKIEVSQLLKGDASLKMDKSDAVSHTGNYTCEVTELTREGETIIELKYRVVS
Assay: SPR, IgG captured, CD47 in flow; exp 4;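 also: biacore T200 SPR using IgG from transfected HEK293 supernatants against wild-type human CD47 or its C33G mutein, rates fitted to association and dissociation curves, KD estimated from them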
Measured Metric: Kd (nM)
Give a bare numeral; the unit nM is implied.

Entry under test: 108VH4.M4-VL1.M1 (antibody, V domains shown, also called original humanized 108C10A6 antibody) VH: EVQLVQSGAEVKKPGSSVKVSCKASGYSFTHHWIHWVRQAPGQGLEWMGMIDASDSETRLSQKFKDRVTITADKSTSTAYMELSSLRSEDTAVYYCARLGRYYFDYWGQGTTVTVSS VL: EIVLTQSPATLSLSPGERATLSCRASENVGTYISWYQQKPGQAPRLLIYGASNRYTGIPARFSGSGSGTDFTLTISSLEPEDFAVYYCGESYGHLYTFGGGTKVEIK . Its Kd was 1.5

Entry under test: 108VH5.M24 / 108VL1.M5 (antibody, human IgG4 S228P, kappa, V domains shown, Full-length IgG4 (S228P), kappa; also called VH5.M24 VL1.M5) VH: EVQLVQSGAEVKKPGASVKVSCKASGYTFTHHWMHWVRQAPGQGLEWMGMIDASDLETRYAQKFQGRVTMTRDTSTSTVYMELSSLRSEDTAVYYCARLGRYYFDYWGQGTLVTVSS VL: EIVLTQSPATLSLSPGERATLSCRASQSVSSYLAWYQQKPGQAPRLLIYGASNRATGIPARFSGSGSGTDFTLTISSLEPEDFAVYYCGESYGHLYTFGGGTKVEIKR . Its Kd was 31

Entry under test: 108VH5.M27 / 108VL1.M5 (antibody, human IgG4 S228P, kappa, V domains shown, Full-length IgG4 (S228P), kappa; also called VH5.M27 VL1.M5) VH: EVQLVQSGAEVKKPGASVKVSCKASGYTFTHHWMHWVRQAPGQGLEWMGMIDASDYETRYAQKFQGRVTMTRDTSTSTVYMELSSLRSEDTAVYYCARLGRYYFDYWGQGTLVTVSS VL: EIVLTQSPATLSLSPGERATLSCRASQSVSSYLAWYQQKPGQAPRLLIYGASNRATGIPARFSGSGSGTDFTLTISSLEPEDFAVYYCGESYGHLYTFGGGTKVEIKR . Its Kd was 39

The reported measurements were obtained from patent US20260132197A1.
